Measured values drawn from patent US10660939 for this set.

target: human melanocortin receptor-4 (human) (UniProt P32245); experiment: competition with [I125]-NDP-α-MSH, hMC4r HEK-293 membranes
Sequence (P32245 whole entry): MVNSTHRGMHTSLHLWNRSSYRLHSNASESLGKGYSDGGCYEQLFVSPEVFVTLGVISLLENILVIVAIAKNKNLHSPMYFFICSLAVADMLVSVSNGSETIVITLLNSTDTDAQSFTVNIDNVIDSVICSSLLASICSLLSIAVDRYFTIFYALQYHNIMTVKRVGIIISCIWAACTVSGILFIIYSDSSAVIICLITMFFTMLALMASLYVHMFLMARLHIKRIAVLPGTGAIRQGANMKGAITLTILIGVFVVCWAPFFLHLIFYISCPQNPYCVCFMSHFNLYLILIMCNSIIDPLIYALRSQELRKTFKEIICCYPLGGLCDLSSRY
measurement.kind: pKi
Give bare numbers, as −log10 of the molar value.

Could you please provide reported pKi for RXXFRWX (N-terminal Ac; Dab 2 (X); Dab 3 (X); D-Phe 4; hGlu 7 (X); cyclo(Dab 2-hGlu 7); C-terminal OH) [Peptide No. 136] ? Thanks!
7.46

Now consider the entry below.
Answer with the recorded pKi for the binder listed here: RXXFRWX (N-terminal Ac; hGlu 2 (X); Dab 3 (X); D-Phe 4; Dab 7 (X); cyclo(hGlu 2-Dab 7); C-terminal OH) [Peptide No. 144]
7.35
